This collection of values is drawn from ChEMBL document CHEMBL1126298.

Test system: DC3F/AD
Assay: In vitro activity in DC-3F/AD cell line Ratio of IC50(actinomycin D alone) / IC50(actinomycin D + modulator) at a concentration of 10 uM
Reported values of Fold reversion for individual entries
attribute.measured: Fold reversion

- C=CCNc1nc(NCC=C)nc(N2CCC(N(C)CC3c4ccccc4CCc4ccccc43)CC2)n1: 3035
- C=CCNc1nc(NC)nc(N2CCC(NCC3c4ccccc4COc4ccccc43)CC2)n1 (centres undefined): 2203
- C=CCNc1nc(NCC=C)nc(N2CCC(NCCC(c3ccc(OC)c(OC)c3)c3ccc(OC)c(OC)c3)CC2)n1: 12
- C/C=C/CNc1nc(NC/C=C/C)nc(N2CCC(NC(c3ccc(F)cc3)c3ccc(F)cc3)CC2)n1.Cl.Cl: 339
- C=CCNc1nc(NCC=C)nc(N2CCC(OC(c3ccc(F)cc3)c3ccc(F)cc3)CC2)n1.Cl: 969
- C=CCNc1nc(NCC=C)nc(N2CCC(NC(c3ccccc3)c3ccc(F)cc3)CC2)n1.Cl (centres undefined): 1796
